# Target Entity: PRMT5-MEP50 enzyme complex (Homo sapiens, UniProt O14744)
# Construct: 1.25 nM of Full-length (FL)-PRMT5-MEP50 enzyme complex; made in house; host or cells: baculovirus-transfected Sf21 cells
# Sequence (O14744 whole entry): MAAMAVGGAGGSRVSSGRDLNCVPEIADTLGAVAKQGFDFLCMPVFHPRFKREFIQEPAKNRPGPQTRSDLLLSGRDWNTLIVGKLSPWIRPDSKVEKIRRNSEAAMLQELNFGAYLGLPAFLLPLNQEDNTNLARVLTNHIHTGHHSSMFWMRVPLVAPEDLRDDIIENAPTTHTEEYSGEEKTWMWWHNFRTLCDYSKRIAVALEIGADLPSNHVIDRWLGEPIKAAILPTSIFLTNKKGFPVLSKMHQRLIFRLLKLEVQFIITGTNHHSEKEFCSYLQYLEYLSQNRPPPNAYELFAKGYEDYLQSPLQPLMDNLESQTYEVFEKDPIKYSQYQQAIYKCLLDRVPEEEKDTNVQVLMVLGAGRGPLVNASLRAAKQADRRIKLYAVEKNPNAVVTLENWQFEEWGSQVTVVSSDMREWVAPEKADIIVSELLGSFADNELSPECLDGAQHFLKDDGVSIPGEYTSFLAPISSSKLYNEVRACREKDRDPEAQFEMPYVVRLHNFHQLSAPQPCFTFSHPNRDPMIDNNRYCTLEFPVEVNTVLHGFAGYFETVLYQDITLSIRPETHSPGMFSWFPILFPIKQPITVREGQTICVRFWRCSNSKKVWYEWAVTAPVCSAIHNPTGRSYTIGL
# Sequence (Q9BQA1 whole entry partner): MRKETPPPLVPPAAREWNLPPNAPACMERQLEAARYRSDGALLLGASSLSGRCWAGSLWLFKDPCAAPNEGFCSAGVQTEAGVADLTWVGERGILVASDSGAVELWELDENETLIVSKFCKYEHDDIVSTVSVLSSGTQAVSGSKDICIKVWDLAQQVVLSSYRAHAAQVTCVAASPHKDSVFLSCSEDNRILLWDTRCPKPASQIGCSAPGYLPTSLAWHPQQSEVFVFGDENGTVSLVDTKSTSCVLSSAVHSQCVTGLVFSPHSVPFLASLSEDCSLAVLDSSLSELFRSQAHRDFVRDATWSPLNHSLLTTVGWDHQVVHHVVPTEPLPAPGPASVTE
# Protocol Description: PRMT5-MEP50 Enzyme Methylation Assay
# Type: biochemical
# Measurement Setup: second EC50 of 7 parameters biphasic model; read-out: Enzyme Methylation Assay (EC50_2)
Observed Property: pEC50
Quick note: pEC50 values are minus log10 of concentrations in mol/L.

Consider the compound shown here: Cc1ncnc2c1ccn2[C@@H]1S[C@@H](CCc2ccc3cc(C(F)F)c(N)nc3c2)[C@@H](O)[C@H]1O [Example 41] What is its recorded pEC50?
6.18

Thanks! And Nc1ncnc2c1ccn2[C@@H]1S[C@H](COc2ccc3ccc(NCC4CC4)nc3c2)[C@@H](O)[C@H]1O [Example 4] ?
6.24

Thanks! And Nc1nc2cc(OC[C@H]3S[C@@H](n4ccc5c(N)ncnc54)[C@H](O)[C@@H]3O)ccc2cc1Cl [Example 2] ?
6.70

Thanks! And COc1ncnc2c1ccn2[C@@H]1S[C@H](COc2ccc3ccc(N)nc3c2)[C@@H](O)[C@H]1O [Example 10] ?
4.79

Thanks! And Cc1cn([C@@H]2S[C@H](CCc3ccc4cc(Br)c(N)nc4c3)[C@@H](O)[C@H]2O)c2ncnc(N)c12 [Example 34] ?
6.82

Thanks! And CC1(COc2ccc3cc(Br)c(N)nc3c2)SC(n2ccc3c(N)ncnc32)C(O)C1O (stereo not drawn) [Example 7] ?
6.27
